FYI, the data here is from BindingDB's records for doi:10.1016/0166-4328(96)00087-3.

Values of Ki reported for 5-hydroxytryptamine receptor 1A (Rattus norvegicus, UniProt P19327) appear below.

| MOLECULE | TARGET UNDER TEST | MODIFIER SIGN | Ki [nM] |
| --- | --- | --- | --- |
| CC(N)Cc1c[nH]c2ccc(OCc3cccs3)cc12 (configuration not stated) | 5-hydroxytryptamine receptor 1A (Rattus norvegicus, UniProt P19327) | = | 1260 |
| Cn1ccc2cc(NC(=O)Nc3cccnc3)ccc21 | 5-hydroxytryptamine receptor 1A (Rattus norvegicus, UniProt P19327) | > | 10000 |

====

- TARGET UNDER TEST: Muscarinic acetylcholine receptor M3 (Sus scrofa)
- Sequence (P11483 whole entry): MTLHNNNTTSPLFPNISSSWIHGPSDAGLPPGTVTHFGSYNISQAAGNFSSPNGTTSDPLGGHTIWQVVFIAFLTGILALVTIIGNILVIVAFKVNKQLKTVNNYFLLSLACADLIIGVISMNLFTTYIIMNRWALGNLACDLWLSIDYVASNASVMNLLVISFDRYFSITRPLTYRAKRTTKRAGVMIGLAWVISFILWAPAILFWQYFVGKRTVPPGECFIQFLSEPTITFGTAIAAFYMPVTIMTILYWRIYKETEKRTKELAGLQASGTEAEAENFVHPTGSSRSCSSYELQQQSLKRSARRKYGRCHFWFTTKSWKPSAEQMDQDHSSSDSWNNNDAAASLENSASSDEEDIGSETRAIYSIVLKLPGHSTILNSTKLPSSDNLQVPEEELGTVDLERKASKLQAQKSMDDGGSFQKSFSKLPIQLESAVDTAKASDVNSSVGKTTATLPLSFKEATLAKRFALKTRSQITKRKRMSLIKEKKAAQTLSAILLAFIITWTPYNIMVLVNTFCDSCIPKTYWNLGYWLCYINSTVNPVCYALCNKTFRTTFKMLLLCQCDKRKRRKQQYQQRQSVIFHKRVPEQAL

| MOLECULE | Ki |
| --- | --- |
| CC(N)Cc1c[nH]c2ccc(OCc3cccs3)cc12 (stereo unspecified) | > 10 µM |

====

- TARGET UNDER TEST: 5-hydroxytryptamine receptor 2A (Oryctolagus cuniculus)
- Sequence (G1SYA7 whole entry): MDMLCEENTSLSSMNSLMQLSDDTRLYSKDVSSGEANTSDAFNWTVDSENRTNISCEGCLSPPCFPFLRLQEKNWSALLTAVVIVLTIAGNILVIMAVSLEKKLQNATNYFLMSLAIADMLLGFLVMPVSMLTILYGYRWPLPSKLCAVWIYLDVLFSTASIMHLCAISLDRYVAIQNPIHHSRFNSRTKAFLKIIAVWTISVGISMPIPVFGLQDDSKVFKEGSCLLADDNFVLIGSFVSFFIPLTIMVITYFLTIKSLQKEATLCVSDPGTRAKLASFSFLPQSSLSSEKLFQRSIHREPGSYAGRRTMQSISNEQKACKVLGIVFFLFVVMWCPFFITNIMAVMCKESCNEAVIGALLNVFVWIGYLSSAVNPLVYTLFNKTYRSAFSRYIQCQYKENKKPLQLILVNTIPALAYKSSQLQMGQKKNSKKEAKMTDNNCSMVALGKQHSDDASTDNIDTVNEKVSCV

| MOLECULE | TARGET UNDER TEST | Ki |
| --- | --- | --- |
| CC(N)Cc1c[nH]c2ccc(OCc3cccs3)cc12 (stereo unspecified) | 5-hydroxytryptamine receptor 2A (Oryctolagus cuniculus) | > 10 µM |

====

- TARGET UNDER TEST: UniProt G1TWL8
- Sequence (G1TWL8 whole entry): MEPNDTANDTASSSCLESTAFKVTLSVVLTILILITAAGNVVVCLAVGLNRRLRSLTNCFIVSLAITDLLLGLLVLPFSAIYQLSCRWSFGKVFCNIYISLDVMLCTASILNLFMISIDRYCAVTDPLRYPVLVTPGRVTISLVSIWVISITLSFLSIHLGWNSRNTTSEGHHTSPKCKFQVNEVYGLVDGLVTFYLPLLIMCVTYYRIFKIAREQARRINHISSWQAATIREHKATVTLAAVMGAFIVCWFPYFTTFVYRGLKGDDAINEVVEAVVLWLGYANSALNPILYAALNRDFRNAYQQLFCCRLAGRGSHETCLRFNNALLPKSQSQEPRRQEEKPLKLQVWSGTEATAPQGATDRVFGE

| COMPOUND | Ki |
| --- | --- |
| CC(N)Cc1c[nH]c2ccc(OCc3cccs3)cc12 (stereo unspecified) | > 10 µM |
